assay: HepG2 cytotoxicity, primary screen, cytotoxicity control for P. falciparum antimalarial project, cell-based, ATP luminescence (AID 2303); settings: HepG2 viability, 24-48 h, at 10 µM, stronger effect = higher value;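 also: 0% = DMSO wells and 100% = digitonin-killed cells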
Result Type: inhibition (%)
Answers are plain numbers, in %.

C=C[C@H]1CN(CCCCCCC)CC[C@H]1CCNc1ccnc2ccc(OC)cc12; 99
COc1cc(Nc2ccnc3cc(-c4ccccn4)ccc23)cc(OC)c1OC; -9

Give me inhibition for each of these compounds, listed below.
1. Cc1cccc(CNc2nccc3[nH]c4ccccc4c23)c1
2. COc1cccc2cc(C(=O)N[C@@H](CC(C)C)C(=O)NC(/C=N/NC(=O)c3ccccc3)CCc3ccccc3)oc12 (stereo not given in full)
3. Cc1nc(-c2nc(N3CCC(C(N)=O)CC3)ncc2-c2ccsc2)sc1C
4. Cc1ccccc1C1CCN(C2CCC(NC(=O)C3=Cc4cc(Cl)ccc4OC3)CC2)CC1 (stereo not given)
5. Cc1cc2c(cc1Cl)N(C(=O)Nc1cc(F)cc(-c3cncnc3)c1)CC2
6. N#Cc1ccc(NC(=Nc2ccccc2Br)N(C2CCCCC2)C2CCCCC2)c(O)c1
7. O=S(=O)(NCCN1CCCC1)c1ccc(-c2cccc(CNCc3ccsc3)c2)s1

[14, 8, -8, 51, -4, 4, 42]

Sample "COc1ccc(Nc2ncc3c(-c4cccc(NC(=O)Cc5ccc(F)cc5)c4)c[nH]c3n2)cc1OC" — what was its inhibition?
21

* * *

biological target: L-lactate dehydrogenase (Plasmodium falciparum (isolate CDC / Honduras)); assay: PfLDH activity inhibition – cell lysate, 3D7 strain, counter-screen for P. falciparum growth inhibition project (AID 2304);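 also: 0% = vehicle and 100% = reference inhibitor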; conditions: P. falciparum 3D7 crude extract, LDH APAD/NBT absorbance; at 2 µM; stronger effect = higher value
Field: inhibition. Provide a value for each of the molecules that follow.
Give bare numbers, in %.

Previously resolved entries follow.
CCCCCCCCOc1c(OCC)cc(Cc2cnc(N)nc2N)cc1OCC; 3
CN1CCN(Cc2ccc(-c3cc4c(Nc5ccc(OCc6cccc(F)c6)c(Cl)c5)ncnc4s3)[nH]2)CC1; 2
N#Cc1ccc(N(CCOC(=O)c2ccc(Br)s2)Cc2ccccc2C(F)(F)F)cc1C(F)(F)F; 3
CC(C)(C)c1ccc(NC(=O)c2ccc(CN3CCCN(Cc4cccc(F)c4)CC3)cc2)cc1; -2

Give me inhibition for each of these molecules, listed below.
1. Cc1nc2ccc3ccc(CNc4ccc(C(=O)N[C@@H](CCC(=O)O)C(=O)O)cc4)cc3c2c(=O)[nH]1
2. O=C(/C=C/c1ccc(Cl)c(Cl)c1)NC1CCN(CCNC(=O)c2cccc(Cl)c2)CC1
3. C#CCOc1ccccc1CN1CCC(N2CCc3cc(NC(=O)c4cc(C)on4)ccc32)C1 (centres undefined)
4. CCCCCCCCNCC(O)c1cc(-c2ccc(Cl)cc2)nc2cc(C)ccc12 (centres undefined)
5. COc1cc2nc(SCCCC#N)n(C3CCCCCC3)c(=N)c2cc1OC

1. 0
2. 0
3. -2
4. -2
5. 0

* * *

biological target: Plasmodium falciparum protein kinase 6 (PK6, PF3D7_1337100) (UniProt Q8IDW1); test: PfPK6 kinase inhibitors, biochemical, TCAMS library (AID 1159586); settings: recombinant PfPK6, Kinase-Glo ATP depletion luminescence
Potency and affinity values are given separately. Activity calls are given as the source filed them. The rule behind the calls is not given here.
Result Type: outcome

Nc1nc(Nc2ccc(Cl)cc2)nc2ccccc12; inactive
Cc1nc(N)nc(N)c1CCCOc1ccc(Br)cc1; inactive
O=C(Nc1ccc(CC(=O)N2CCc3cc(Cl)c(N4CCN(C/C=C/c5ccccc5)CC4)cc32)cc1)Nc1cccc([N+](=O)[O-])c1; inactive
O=C(c1cccc(-c2ccc(-c3nc4ccc(F)cc4[nH]3)s2)c1)N1CCCCC1CN1CCC(O)C1 (stereo not given); inactive
CC(Cc1ccc(NC(=O)c2ccc(CC(C)NCc3ccc(Cl)c(Cl)c3)cc2)cc1)NCCc1cccc(Cl)c1 (stereo not given); inactive
O=C(O)Cc1ccc(-c2c[nH]c3ncc(-c4cccc5ncccc45)cc23)cc1; inactive

Give me outcome for each of these compounds, listed below.
1. CN1CCC(N2CCN(Cc3cccc(-c4cccc(-c5nc6ccccc6[nH]5)c4)c3)CC2)CC1
2. Oc1ccc(CCNCCCCCCNCCc2ccc(Cl)cc2)c(Cl)c1O

1: inactive; 2: inactive

Give me outcome for each of these compounds, listed below.
1. CNC(=O)c1cncc(/C=C/c2ccccc2S(N)(=O)=O)c1
2. C=C(NC(=O)c1cc(C)cc(C)c1)C(=O)OC

inactive
inactive

* * *

test: antimalarial activity against Dd2 strain (AID 2302);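 also: 0% = DMSO untreated growth and 100% = chloroquine plus artemisinin killed control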; settings: P. falciparum Dd2 in RBCs, LDH growth readout, 72 h; at 2 µM; stronger effect = higher value
Outcome: Condition met for growth inhibition of at least 50%; Condition not met for anything lower.

Examples from the recorded data:
NC1CCN(Cc2ccc(-c3ccc(-c4nc5ccc(F)cc5[nH]4)s3)cc2)C1 (centres undefined); Condition met
CN1CCCC(CN2CCN(Cc3ccc(-c4cccc(-c5nc6ccc(F)cc6[nH]5)c4)cc3)CC2)C1 (centres undefined); Condition met
O=C(Nc1cccnc1)c1cc(-c2cccnc2)nc2ccc(Br)cc12; Condition met
CCCc1cc(Cc2cnc(N)nc2N)ccc1OCCCCCC(=O)O; Condition not met
CS(=O)(=O)c1ccccc1CNC(=O)c1cccc(-c2ccc(-c3nc4ccc(C(F)(F)F)cc4[nH]3)cc2)c1; Condition not met

Please check the record "O=C(Nc1ccc(Cn2ncc(N3CCCNCC3)c(Cl)c2=O)cc1)Nc1cccc(Oc2ccccc2)c1" and state if its growth inhibition is at or above 50%.
Condition not met

Please check the record COc1ccccc1-c1ccc(CNC(=O)C(CN2CCN(C)CC2)c2ccccc2)cc1 (centres undefined) and state if its growth inhibition is at or above 50%.
Condition not met

Please check the record "CN(CC(=O)Nc1ccc(F)cc1)C(=O)c1ccc(-c2ccc(F)cc2)o1" and state if its growth inhibition is at or above 50%.
Condition met

* * *

test: inhibition of 3D7 malaria parasite growth – strain 3D7 (AID 2306);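 also: 0% = DMSO wells and 100% = chloroquine plus artemisinin control wells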; conditions: P. falciparum 3D7 erythrocytic growth, LDH absorbance, 72 h; at 2 µM; stronger effect = higher value
Result Type: growth inhibition (%)
Answers are plain numbers, in %.

Nc1c2c(nc3ccc(NC(=O)CCCCCc4ccccc4)cc13)CCCC2; 102
O=C1CSc2ccc(CNC3CCN(CCc4c(Cl)cnc5ccc(Cl)cc45)CC3)nc2N1; 101
c1cc(CN2CCCCC2)cc(-c2ccc(-c3nc4ccccc4[nH]3)cc2)c1; 101
O=c1ccc2ccc(F)c3c2n1CC3CN1CCC(NCc2cccc(-c3cccs3)c2)CC1 (stereo not given); 100
O=C1NC(=O)C(c2ccc(Cl)cc2)=C1Nc1cccc(S(=O)(=O)C(F)(F)F)c1; 99
COc1cccc(NC(=O)Nc2cc(-c3ccc4[nH]ncc4c3)cc3c2CNC3=O)c1; 98
CN1CCCC1CCCOC(=O)c1ccc(N)cc1 (stereo not given); 101
CN(C)CCCOc1ccc(CN2CC[C@H](NC(=O)c3ccc(Cl)c(Cl)c3)C2)cc1Cl; 100
CN(C)CCOc1cc(O)c2c(c1)OC(C)(C)C=C2c1cccs1; 99

Sample "COc1ccc(N2CCN(CCCCNC(=O)c3ccc(NC(=O)c4ccc(Cl)c(Cl)c4)cc3)CC2)c(OC)c1" — what was its growth inhibition?
101

* * *

test: HepG2 cytotoxicity, primary screen, cytotoxicity control for P. falciparum antimalarial project, cell-based, ATP luminescence (AID 2303); details: HepG2 viability, 24-48 h, at 10 µM;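 also: 0% = DMSO wells and 100% = digitonin-killed cells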
The source made the active and inactive calls.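 How the source made its calls: active means inhibition above 50%; inactive means the rest.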
The categories you may choose from are true (1) (active), false (0) (inactive)

Any idea what this test logged for "CCCCCCN1CCC(CNCc2cccc([N+](=O)[O-])c2)CC1" ?
false (0)

* * *

target: Protein kinase 7 (PK7), Plasmodium falciparum 3D7 (PF3D7_0213400) (UniProt Q7YTF7); experiment: inhibition of Plasmodium PK7 catalytic activity – biochemical, TCAMS antimalarial set, Kinase-Glo luminescence (AID 1159587); settings: recombinant PfPK7, Kinase-Glo ATP depletion luminescence
Active and inactive are the calls of the source. No rule for the calls is given here.
Result Type: outcome

COc1cccc(CNC(=O)c2cccc(-c3ccc(CN4CCC(N5CCCC5)CC4)cc3)n2)c1; inactive
COc1cc2c(=O)c(Cc3ccc(Cl)cc3)c(C)[nH]c2cc1F; inactive
Cn1cc(CCNc2ccnc(N3CCC(c4ncc[nH]4)CC3)n2)c2ccccc21; inactive
O=C(Nc1ccc(OC2CCN(Cc3ccco3)C2)c(Cl)c1)c1ccc2ncccc2c1 (stereo not given); inactive
Cc1cc(OCCCN2CCCCC2)ccc1NC(=O)COc1ccc(Cl)cc1C(=O)c1cc(C#N)cc(C(F)(F)F)c1; inactive
O=S(=O)(NCCCN1CCOCC1)c1ccc2nccc(Nc3ccc(Oc4ccccc4)cc3)c2c1; inactive
N=C(N)CCN(Cc1ccccc1)c1ccc(Cl)cc1; inactive
Cc1nc2ccc(NC(=O)c3cc(S(=O)(=O)N(C)C)ccc3Cl)cc2s1; inactive
NC1=NC2(CCCCC2)N(OCCCOc2cc(Cl)c(Cl)cc2Cl)C(N)=N1; inactive

Now consider a different compound.
Sample "Cc1cc2[nH]c(-c3ccc(C(=O)NCCCN4CCN(c5cccc(Cl)c5)CC4)cc3F)nc2cc1Cl" — what was its outcome?
inactive
